molecular target: hMPV F protein on hMPV/A virus (human metapneumovirus, subtype A, UniProt Q6WB98 19-539); experiment: cell-based or functional assay
Sequence (Q6WB98 19-539): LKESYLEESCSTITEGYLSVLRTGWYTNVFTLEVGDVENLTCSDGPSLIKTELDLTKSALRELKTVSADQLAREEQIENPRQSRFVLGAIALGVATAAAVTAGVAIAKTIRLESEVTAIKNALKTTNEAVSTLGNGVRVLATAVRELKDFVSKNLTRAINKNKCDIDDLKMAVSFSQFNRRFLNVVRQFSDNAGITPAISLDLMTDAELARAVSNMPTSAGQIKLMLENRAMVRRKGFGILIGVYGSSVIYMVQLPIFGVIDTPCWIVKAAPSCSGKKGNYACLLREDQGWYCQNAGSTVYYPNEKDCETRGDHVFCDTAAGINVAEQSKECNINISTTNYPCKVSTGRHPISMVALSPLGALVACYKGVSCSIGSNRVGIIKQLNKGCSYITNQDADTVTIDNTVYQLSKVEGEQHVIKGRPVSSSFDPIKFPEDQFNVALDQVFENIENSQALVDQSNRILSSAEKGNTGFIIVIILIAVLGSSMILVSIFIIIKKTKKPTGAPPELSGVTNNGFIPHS
OBSERVATION_TYPE: IC50, original serum dilution (µg/mL)
Numbers only, in µg/mL.

Some entries whose results are on file:
BINDER	VALUE_UNIT	TEST_RESULT
17D10 (mouse) (antibody, V domains shown, Mouse IgG1 / kappa; also called Mouse 17D10 mAB; 17D10 mIgG) VH: QVQLQQPGAELVKPGASVKMSCKASGYTFTSYWITWVKQRPGQGLEWIGDIYPGSGSITYNEKFKTKATLTVDTSSSTAYMQLNSLTSEDSAVYYCAGLLRLTFDVWGTGTTVTVSS VL: DIQLTQTTSSLSASLGDRVTISCRASQDISNYLNWYQQKPDGTVKLLISYTSGLHSGVPSRFSGSGSGTDYSLTISNLEQEDIATYFCQQGNTLPWTFGGGTKLEIK	µg/mL	0.195
17D10 hIgG1 (antibody, V domains shown, Recombinant form with human IgG1 Fc; also called Human 17D10 mAB; 171D10 hIgG1) VH: QVQLQQPGAELVKPGASVKMSCKASGYTFTSYWITWVKQRPGQGLEWIGDIYPGSGSITYNEKFKTKATLTVDTSSSTAYMQLNSLTSEDSAVYYCAGLLRLTFDVWGTGTTVTVSS VL: DIQLTQTTSSLSASLGDRVTISCRASQDISNYLNWYQQKPDGTVKLLISYTSGLHSGVPSRFSGSGSGTDYSLTISNLEQEDIATYFCQQGNTLPWTFGGGTKLEIKR	µg/mL	0.138

Look at this binder and give its reported IC50, original serum dilution. 13E10 (mouse) (antibody, V domains shown, Mouse IgG1 / kappa; also called 13E10 mIgG) VH: EVKLVESGGGLVQPGGSLSLSCAASGFTFTDYYMNWVRQPPGKALEWLGFIRNKDNGYTTEYSASVKGRFTISRDNSQSILYLQMNALRAEDSATYYCTRYYFGYDGDYFDYWGQGTTLTVSS VL: EIVLTQSPTTMAASPGEKITITCSASSSISSNYLHWYQQKAGFSPKLLIYRTSNLASGVPARFSGSGSGTSYSLTIGTMEAEDVATYYCQQGSSLPRTFGGGTKLEIK
0.781
